Molecular target: N-type calcium channel (NTCC) (Homo sapiens, UniProt Q00975)
Sequence (Q00975 whole entry): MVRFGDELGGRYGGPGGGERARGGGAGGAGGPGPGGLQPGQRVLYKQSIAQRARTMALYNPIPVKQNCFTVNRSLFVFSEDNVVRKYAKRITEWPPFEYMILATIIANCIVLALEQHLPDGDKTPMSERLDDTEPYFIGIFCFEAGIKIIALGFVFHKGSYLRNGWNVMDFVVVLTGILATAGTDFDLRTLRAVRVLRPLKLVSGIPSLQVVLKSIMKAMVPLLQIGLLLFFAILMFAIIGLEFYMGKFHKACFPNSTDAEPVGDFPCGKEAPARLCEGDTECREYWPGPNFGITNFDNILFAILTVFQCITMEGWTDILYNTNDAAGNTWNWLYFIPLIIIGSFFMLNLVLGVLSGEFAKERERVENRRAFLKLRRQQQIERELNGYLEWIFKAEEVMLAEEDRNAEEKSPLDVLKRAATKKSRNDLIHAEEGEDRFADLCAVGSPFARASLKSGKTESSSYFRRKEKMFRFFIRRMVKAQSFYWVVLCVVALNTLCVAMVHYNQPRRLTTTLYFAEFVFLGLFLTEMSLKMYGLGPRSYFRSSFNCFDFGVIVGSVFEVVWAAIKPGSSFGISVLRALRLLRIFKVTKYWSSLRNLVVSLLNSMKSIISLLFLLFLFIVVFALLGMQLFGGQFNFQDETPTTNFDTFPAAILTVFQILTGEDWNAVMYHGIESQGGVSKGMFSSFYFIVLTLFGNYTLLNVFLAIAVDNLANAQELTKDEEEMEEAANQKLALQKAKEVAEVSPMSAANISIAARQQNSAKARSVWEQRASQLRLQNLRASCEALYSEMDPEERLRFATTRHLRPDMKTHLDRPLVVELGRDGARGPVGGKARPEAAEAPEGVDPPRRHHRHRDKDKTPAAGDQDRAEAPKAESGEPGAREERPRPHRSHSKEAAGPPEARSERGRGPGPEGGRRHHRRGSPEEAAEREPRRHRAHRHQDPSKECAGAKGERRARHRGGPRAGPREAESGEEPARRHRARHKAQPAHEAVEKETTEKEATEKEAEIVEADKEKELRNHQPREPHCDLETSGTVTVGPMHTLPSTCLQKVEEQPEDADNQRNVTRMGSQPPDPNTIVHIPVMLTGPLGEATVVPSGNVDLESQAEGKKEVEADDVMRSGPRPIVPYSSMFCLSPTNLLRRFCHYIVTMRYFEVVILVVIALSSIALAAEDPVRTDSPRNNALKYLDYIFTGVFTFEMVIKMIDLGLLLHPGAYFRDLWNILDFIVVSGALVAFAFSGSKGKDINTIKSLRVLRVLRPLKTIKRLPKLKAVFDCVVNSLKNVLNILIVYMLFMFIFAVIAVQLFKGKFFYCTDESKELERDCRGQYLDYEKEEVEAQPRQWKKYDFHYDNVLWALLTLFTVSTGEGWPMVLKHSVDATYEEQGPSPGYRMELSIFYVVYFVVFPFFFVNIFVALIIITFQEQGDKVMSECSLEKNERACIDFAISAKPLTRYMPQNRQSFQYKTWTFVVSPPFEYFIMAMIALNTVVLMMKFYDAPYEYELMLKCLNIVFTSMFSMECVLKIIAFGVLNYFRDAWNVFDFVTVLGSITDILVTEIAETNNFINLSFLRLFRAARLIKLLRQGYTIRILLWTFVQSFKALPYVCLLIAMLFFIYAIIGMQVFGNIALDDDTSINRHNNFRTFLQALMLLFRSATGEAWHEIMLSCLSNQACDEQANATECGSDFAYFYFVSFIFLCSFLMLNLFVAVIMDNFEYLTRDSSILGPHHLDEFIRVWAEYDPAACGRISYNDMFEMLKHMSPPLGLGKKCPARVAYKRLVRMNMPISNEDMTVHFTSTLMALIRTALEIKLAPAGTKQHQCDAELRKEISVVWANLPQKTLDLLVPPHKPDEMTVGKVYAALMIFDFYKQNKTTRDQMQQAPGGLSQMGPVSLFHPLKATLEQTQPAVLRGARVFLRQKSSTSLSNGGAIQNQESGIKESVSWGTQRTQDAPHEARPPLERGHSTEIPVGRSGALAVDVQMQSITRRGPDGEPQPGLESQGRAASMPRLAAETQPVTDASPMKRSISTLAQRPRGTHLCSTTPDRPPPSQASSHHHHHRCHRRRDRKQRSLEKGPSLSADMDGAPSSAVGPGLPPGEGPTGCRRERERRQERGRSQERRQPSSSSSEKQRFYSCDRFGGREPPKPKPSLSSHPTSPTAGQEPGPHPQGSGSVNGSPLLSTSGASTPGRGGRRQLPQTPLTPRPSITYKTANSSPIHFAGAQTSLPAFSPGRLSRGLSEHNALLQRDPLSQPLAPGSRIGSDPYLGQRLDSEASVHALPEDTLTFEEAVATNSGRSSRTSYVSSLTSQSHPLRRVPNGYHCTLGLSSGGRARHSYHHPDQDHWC
Sequence (P54289 25-956 partner limits assumed): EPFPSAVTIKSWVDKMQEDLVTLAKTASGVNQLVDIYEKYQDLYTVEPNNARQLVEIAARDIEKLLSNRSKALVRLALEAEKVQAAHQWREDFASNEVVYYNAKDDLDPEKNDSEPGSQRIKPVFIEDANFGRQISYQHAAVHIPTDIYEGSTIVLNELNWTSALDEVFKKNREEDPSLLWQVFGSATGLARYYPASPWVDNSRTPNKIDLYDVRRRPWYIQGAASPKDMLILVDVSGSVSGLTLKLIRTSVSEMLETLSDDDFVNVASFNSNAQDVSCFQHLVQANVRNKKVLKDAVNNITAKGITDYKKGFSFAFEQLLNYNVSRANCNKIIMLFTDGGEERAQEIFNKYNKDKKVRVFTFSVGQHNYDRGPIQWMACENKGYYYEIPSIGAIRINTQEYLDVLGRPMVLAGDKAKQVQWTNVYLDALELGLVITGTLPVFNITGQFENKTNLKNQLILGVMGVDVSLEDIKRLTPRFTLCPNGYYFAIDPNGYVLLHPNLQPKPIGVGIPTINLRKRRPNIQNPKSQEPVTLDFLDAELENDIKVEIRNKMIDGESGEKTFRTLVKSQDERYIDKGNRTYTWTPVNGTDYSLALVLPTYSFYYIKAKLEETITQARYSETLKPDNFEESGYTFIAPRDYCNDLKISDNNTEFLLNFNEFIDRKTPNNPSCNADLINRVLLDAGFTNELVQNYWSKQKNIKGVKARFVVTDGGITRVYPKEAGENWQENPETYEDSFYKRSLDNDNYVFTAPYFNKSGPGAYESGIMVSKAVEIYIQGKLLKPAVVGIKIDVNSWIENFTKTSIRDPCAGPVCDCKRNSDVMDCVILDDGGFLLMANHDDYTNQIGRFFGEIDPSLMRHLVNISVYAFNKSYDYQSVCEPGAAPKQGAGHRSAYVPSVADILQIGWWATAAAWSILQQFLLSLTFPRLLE
Sequence (P54289 957-1103 partner limits assumed): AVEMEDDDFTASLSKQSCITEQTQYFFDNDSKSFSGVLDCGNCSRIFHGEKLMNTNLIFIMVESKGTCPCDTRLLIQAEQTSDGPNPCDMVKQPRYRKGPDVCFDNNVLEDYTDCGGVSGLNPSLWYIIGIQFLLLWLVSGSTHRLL
Sequence (P54284 whole entry partner): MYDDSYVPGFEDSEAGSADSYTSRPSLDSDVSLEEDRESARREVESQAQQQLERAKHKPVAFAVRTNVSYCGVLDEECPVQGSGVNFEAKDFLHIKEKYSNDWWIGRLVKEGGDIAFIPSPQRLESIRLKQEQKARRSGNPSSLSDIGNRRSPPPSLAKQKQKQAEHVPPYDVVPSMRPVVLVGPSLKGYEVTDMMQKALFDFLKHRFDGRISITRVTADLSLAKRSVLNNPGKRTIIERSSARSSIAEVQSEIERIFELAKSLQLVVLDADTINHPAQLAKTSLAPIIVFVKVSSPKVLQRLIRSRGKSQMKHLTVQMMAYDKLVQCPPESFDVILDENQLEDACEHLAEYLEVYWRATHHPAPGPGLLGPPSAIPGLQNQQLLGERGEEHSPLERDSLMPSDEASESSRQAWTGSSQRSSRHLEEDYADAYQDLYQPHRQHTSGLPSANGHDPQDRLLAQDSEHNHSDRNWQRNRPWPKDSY
Experiment: FLIPR calcium mobilization assay for N-type calcium channel
Details: calcium mobilization in vitro assay; differentiated IMR32 cells
Field: IC50. Provide a value for each of the compounds that follow.
Answers are plain numbers, in nM.

Use the examples below as a reference point.
- COMPOUND: "COc1ccccc1CNCC(=O)N1CCC(N(C2CC2)S(=O)(=O)c2ccc(Cl)cc2)CC1 [Compound 101]"
  IC50 (nM): 630
- COMPOUND: "CC(C)N(C1CCN(C(=O)CC(N)c2cccs2)CC1)S(=O)(=O)c1cccc(C(F)(F)F)c1 (stereo not drawn)"
  IC50 (nM): 1100
- COMPOUND: "CN(C1CCN(CC(=O)Nc2nc3ccc(F)cc3s2)CC1)S(=O)(=O)c1cccc(C(F)(F)F)c1 [Compound 65]"
  IC50 (nM): 2160
- COMPOUND: "CC(C)N(C1CCN(C(=O)C(N)Cc2csc3ccccc23)CC1)S(=O)(=O)c1cccc(C(F)(F)F)c1 (stereo not drawn)"
  IC50 (nM): 470
- COMPOUND: "Cc1ccccc1NC(=O)CN1CCC(N(C(C)C)S(=O)(=O)c2cccc(C(F)(F)F)c2)CC1 [Compound 42b]"
  IC50 (nM): 460

Kindly give each listed record's IC50.
1. COc1cccc(NCCC(=O)N2CCC(N(C(C)C)S(=O)(=O)c3cccc(C(F)(F)F)c3)CC2)c1OC
2. Cc1cccc(NC(=O)CN2CCC(N(C(C)C)S(=O)(=O)c3cccc(C(F)(F)F)c3)CC2)c1 [Compound 42d]
3. CC(C)N(C1CCN(C(=O)CCNc2ccccc2OC(F)(F)F)CC1)S(=O)(=O)c1cccc(C(F)(F)F)c1

[310, 450, 330]
